# method: solubility of flavonoids in naturally occurring deep eutectic solvents
# Assay type: physicochemical
# run.parameters: organic solvent or mixture, Solubility in Glucose + Choline chloride
# Description: First the solubility of natural products, which are not soluble in water, was evaluated in a few selected natural deep eutectic solvents. Several flavonoids were chosen as the natural water-insoluble products, because they are one of the most abundant water-insoluble plant secondary metabolites. Up to now more than 500 flavonoids have been known. Most of these flavonoids occur in their glycosides forms (bounded to a sugar molecule) in plants. […]
List of solubility values.

| compound | solubility [mg/mL] |
| --- | --- |
| C[C@@H]1O[C@@H](OC[C@H]2O[C@@H](Oc3c(-c4ccc(O)c(O)c4)oc4cc(O)cc(O)c4c3=O)[C@H](O)[C@@H](O)[C@@H]2O)[C@H](O)[C@H](O)[C@H]1O [rutin, quercetin-3-O-rhanmoglucoside] | 4.78 |
| O=c1c(O)c(-c2ccc(O)c(O)c2)oc2cc(O)cc(O)c12 [quercetin] | 21.6 |
